# study target: BCL2 G101V (Homo sapiens, UniProt P10415, G101V)
# assay notes: TR-FRET competitive binding assay, BCL2 G101V
# assay context: BCL2 G101V; Ki determined from IC50; read-out: TR_FRET EKI_Bcl2 G101V

compound	display unit	Ki
Cc1c(N(C(=O)c2cc(-c3cc4c(cc3C(=O)N3Cc5ccccc5C[C@H]3C)CN(Cc3cc5ccccc5cn3)CC4)n(C)c2C)c2ccc(O)cc2)cc(C#N)n1C [Example 58]	nM	1.7
Cc1c(N(C(=O)c2cc(-c3cc4c(cc3C(=O)N3Cc5ccccc5C[C@H]3CN3CCCCC3)CN(C(=O)Cc3ccc(OCCC5COCCO5)cc3F)CC4)n(C)c2C)c2ccc(O)cc2)cc(C#N)n1C (single isomer, unassigned) [Example 174]	nM	0.5
COc1ccc(N(C(=O)c2cc(-c3cc4c(cc3C(=O)N3Cc5ccccc5C[C@H]3C)CN(C(=O)Cc3ccc(OCCN5CCOCC5)cc3)CC4)n(C)c2C)c2ccccc2)cn1 [Example 191]	nM	2.4
Cc1c(N(C(=O)c2cc(-c3cc4c(cc3C(=O)N3Cc5ccccc5C[C@H]3C)CN(C(=O)Cc3ccc(OCCN5CCOCC5)cc3F)CC4)n(C)c2C)c2ccccc2)cc(C#N)n1C [Example 234]	nM	0.76
COCc1ccc(CC(=O)N2CCc3cc(-c4cc(C(=O)N(c5ccc(O)cc5)c5cc(C#N)n(C)c5C)c(C)n4C)c(C(=O)N4Cc5ccccc5C[C@H]4C)cc3C2)cc1 [Example 87]	nM	0.5
Cc1c(N(C(=O)c2cc(-c3cc4c(cc3C(=O)N3Cc5ccccc5C[C@H]3C)CN(C(=O)Cc3ccc(OCCN5CCO[C@@H](C)C5)cc3)CC4)n(C)c2C)c2ccc(O)cc2)cc(C#N)n1C [Example 57]	nM	0.2
Cc1c(N(C(=O)c2cc(-c3cc4c(cc3C(=O)N3Cc5ccccc5C[C@H]3C)CN(C(=O)Cc3ccc(N5CCN6CC(F)(F)C[C@H]6C5)cc3F)CC4)n(C)c2C)c2ccc(O)cc2)cc(C#N)n1C [Example 40]	nM	3
Cc1c(N(C(=O)c2cc(-c3cc4c(cc3C(=O)N3Cc5ccccc5C[C@H]3C)CN(C(=O)Cc3ccc(OCCN5CCOCC5)cc3)CC4)n(C)c2C)c2ccccc2)cc(C#N)n1C [Example 236]	nM	0.73
Cc1c(N(C(=O)c2cc(-c3cc4c(cc3C(=O)N3Cc5ccccc5C[C@H]3CN3CCC5(CC3)CC5)CN(C(=O)Cc3ccc(OCCN5CCOCC5)cc3F)CC4)n(C)c2C)c2ccc(O)cc2)cc(C#N)n1C [Example 126]	nM	0.7
Cc1c(N(C(=O)c2cc(-c3cc4c(cc3C(=O)N3Cc5ccccc5C[C@H]3CN3CCCCC3)CN(C(=O)Cc3ccc(O[C@H]5CCN(CCF)C5)cc3F)CC4)n(C)c2C)c2ccc(O)cc2)cc(C#N)n1C [Example 89]	nM	0.3

* * *

TR_FRET EKI G101V/WT selectivty ratio by entry:
# Test system: BCL2 G101V
# assay notes: TR-FRET competitive binding assay, BCL2 G101V
# Set-up: species or system human
# assay context: ratio Ki BCL2 G101V / Ki BCL2 WT

compound	TR_FRET EKI G101V/WT selectivty ratio
Cc1c(N(C(=O)c2cc(-c3cc4c(cc3C(=O)N3Cc5ccccc5C[C@H]3CN3CCC[C@H](C)C3)CN(C(=O)Cc3ccc(OCCN(C)C5CC5)cc3)CC4)n(C)c2C)c2ccc(O)cc2)cc(C#N)n1C	8.3
Cc1c(N(C(=O)c2cc(-c3cc4c(cc3C(=O)N3Cc5ccccc5C[C@H]3CN3CCCCC3)CN(C(=O)Cc3ccc(OCC(C)N5CCOCC5)cc3)CC4)n(C)c2C)c2ccc(O)cc2)cc(C#N)n1C (single isomer, unassigned) [Example 127]	4.3
Cc1c(C(=O)N(c2ccccc2)c2cnn(CCN(C)C)c2)cc(-c2cc3c(cc2C(=O)N2Cc4ccccc4C[C@H]2C)CN(C(=O)Cc2ccc(OCCC4CCOCC4)cc2)CC3)n1C	68.8
COCCn1cc(N(C(=O)c2cc(-c3cc4c(cc3C(=O)N3Cc5ccccc5C[C@H]3C)CN(C(=O)Cc3ccc(OCCN5CCOCC5)cc3)CC4)n(C)c2C)c2ccccc2)cn1	83.2
Cc1c(N(C(=O)c2cc(-c3cc4c(cc3C(=O)N3Cc5ccccc5C[C@H]3CN3CCCCC3)CN(C(=O)Cc3ccc(OCCC5CCOCC5)cc3)CC4)n(C)c2C)c2ccc(O)cc2)cc(C#N)n1C	5.7
Cc1c(N(C(=O)c2cc(-c3cc4c(cc3C(=O)N3Cc5ccccc5C[C@H]3C)CN(C(=O)c3ccccc3)CC4)n(C)c2C)c2ccc(O)cc2)cc(C#N)n1C	7.6
Cc1c(N(C(=O)c2cc(-c3cc4c(cc3C(=O)N3Cc5ccccc5C[C@H]3C)CN(C(=O)Cc3ccc(N5CCN(CC(F)(F)F)CC5)cc3)CC4)n(C)c2C)c2ccc(O)cc2)cc(C#N)n1C	6.0
Cc1c(N(C(=O)c2cc(-c3cc4c(cc3C(=O)N3Cc5ccccc5C[C@H]3C)CN(C(=O)C3Cc5ccccc5O3)CC4)n(C)c2C)c2ccc(O)cc2)cc(C#N)n1C (stereo partly drawn)	5.0
Cc1c(C(=O)N(c2ccccc2)c2cnn(C(F)F)c2)cc(-c2cc3c(cc2C(=O)N2Cc4ccccc4C[C@H]2CN2CC4(CCC4)C2)CN(C(=O)Cc2ccc(OCCN4CCOCC4)cc2)CC3)n1C	321.5
Cc1c(N(C(=O)c2cc(-c3cc4c(cc3C(=O)N3Cc5ccccc5C[C@H]3CN3CCCCC3)CN(C(=O)Cc3ccc(OCCN5CCOC[C@H]5C)cc3F)CC4)n(C)c2C)c2ccc(O)cc2)cc(C#N)n1C	5.8
CCOC[C@@H]1Cc2ccccc2CN1C(=O)c1cc2c(cc1-c1cc(C(=O)N(c3ccc(O)cc3)c3cc(C#N)n(C)c3C)c(C)n1C)CCN(C(=O)Cc1ccc(OCCN3CCOCC3)cc1F)C2	4.6
COc1ccc(N(C(=O)c2cc(-c3cc4c(cc3C(=O)N3Cc5ccccc5C[C@H]3C)CN(C(=O)Cc3ccc(OCCN5CCOCC5)cc3)CC4)n(C)c2C)c2ccccc2)cc1C#N	13.3

Data provenance is patent US20250179047A1.
